Where do these numbers come from? They come from paper PMC3527362.

substrate: NC(=O)N[C@@H](O)C(=O)O; test: purified protein; format: biochemical, Escherichia coli; conditions: 3 mM NAD+ (saturating), 30 °C, value in parentheses is standard error, His-tag kept
A collection of proteins and their measured kcat
Answer format reminder: number followed by unit.

Query: Report measured kcat; entry is (S)-ureidoglycolate dehydrogenase (AllD) (Escherichia coli K-12; Y52F) (protein, full length, modified pET28b with N-terminal His-tag and TEV site, expressed in E. coli BL21(DE3); tag cut for crystals, kept on mutant enzymes for kinetics; homodimer) MKISRETLHQLIENKLCQAGLKREHAATVAEVLVYADARGIHSHGAVRVEYFAERISKGGTNREPEFRLEETGPCSAILHADNAAGQVAAKMGMEHAIKTAQQNGVAVVGISRMGHSGAISYFVQQAARAGFIGISMCQSDPMVVPFGGAEIYYGTNPLAFAAPGEGDEILTFDMATTVQAWGKVLDARSRNMSIPDTWAVDKNGVPTTDPFAVHALLPAAGPKGYGLMMMIDVLSGVLLGLPFGRQVSSMYDDLHAGRNLGQLHIVINPNFFSSSELFRQHLSQTMRELNAITPAPGFNQVYYPGQDQDIKQRKAAVEGIEIVDDIYQYLISDALYNTSYETKNPFAQ
Result: 1.92 s⁻¹

More entries:
Query: Report measured kcat; entry is (S)-ureidoglycolate dehydrogenase (AllD) (Escherichia coli K-12; D141E) (protein, full length, modified pET28b with N-terminal His-tag and TEV site, expressed in E. coli BL21(DE3); tag cut for crystals, kept on mutant enzymes for kinetics; homodimer) MKISRETLHQLIENKLCQAGLKREHAATVAEVLVYADARGIHSHGAVRVEYYAERISKGGTNREPEFRLEETGPCSAILHADNAAGQVAAKMGMEHAIKTAQQNGVAVVGISRMGHSGAISYFVQQAARAGFIGISMCQSEPMVVPFGGAEIYYGTNPLAFAAPGEGDEILTFDMATTVQAWGKVLDARSRNMSIPDTWAVDKNGVPTTDPFAVHALLPAAGPKGYGLMMMIDVLSGVLLGLPFGRQVSSMYDDLHAGRNLGQLHIVINPNFFSSSELFRQHLSQTMRELNAITPAPGFNQVYYPGQDQDIKQRKAAVEGIEIVDDIYQYLISDALYNTSYETKNPFAQ
Result: 1.67 s⁻¹

Query: Report measured kcat; entry is (S)-ureidoglycolate dehydrogenase (AllD) (Escherichia coli K-12; H44A) (protein, full length, modified pET28b with N-terminal His-tag and TEV site, expressed in E. coli BL21(DE3); tag cut for crystals, kept on mutant enzymes for kinetics; homodimer) MKISRETLHQLIENKLCQAGLKREHAATVAEVLVYADARGIHSAGAVRVEYYAERISKGGTNREPEFRLEETGPCSAILHADNAAGQVAAKMGMEHAIKTAQQNGVAVVGISRMGHSGAISYFVQQAARAGFIGISMCQSDPMVVPFGGAEIYYGTNPLAFAAPGEGDEILTFDMATTVQAWGKVLDARSRNMSIPDTWAVDKNGVPTTDPFAVHALLPAAGPKGYGLMMMIDVLSGVLLGLPFGRQVSSMYDDLHAGRNLGQLHIVINPNFFSSSELFRQHLSQTMRELNAITPAPGFNQVYYPGQDQDIKQRKAAVEGIEIVDDIYQYLISDALYNTSYETKNPFAQ
Result: 1.76 s⁻¹

Query: Report measured kcat; entry is (S)-ureidoglycolate dehydrogenase (AllD) (Escherichia coli K-12; D141A) (protein, full length, modified pET28b with N-terminal His-tag and TEV site, expressed in E. coli BL21(DE3); tag cut for crystals, kept on mutant enzymes for kinetics; homodimer) MKISRETLHQLIENKLCQAGLKREHAATVAEVLVYADARGIHSHGAVRVEYYAERISKGGTNREPEFRLEETGPCSAILHADNAAGQVAAKMGMEHAIKTAQQNGVAVVGISRMGHSGAISYFVQQAARAGFIGISMCQSAPMVVPFGGAEIYYGTNPLAFAAPGEGDEILTFDMATTVQAWGKVLDARSRNMSIPDTWAVDKNGVPTTDPFAVHALLPAAGPKGYGLMMMIDVLSGVLLGLPFGRQVSSMYDDLHAGRNLGQLHIVINPNFFSSSELFRQHLSQTMRELNAITPAPGFNQVYYPGQDQDIKQRKAAVEGIEIVDDIYQYLISDALYNTSYETKNPFAQ
Result: 1.62 s⁻¹

Query: Report measured kcat; entry is (S)-ureidoglycolate dehydrogenase (AllD) (Escherichia coli K-12; M251A) (protein, full length, modified pET28b with N-terminal His-tag and TEV site, expressed in E. coli BL21(DE3); tag cut for crystals, kept on mutant enzymes for kinetics; homodimer) MKISRETLHQLIENKLCQAGLKREHAATVAEVLVYADARGIHSHGAVRVEYYAERISKGGTNREPEFRLEETGPCSAILHADNAAGQVAAKMGMEHAIKTAQQNGVAVVGISRMGHSGAISYFVQQAARAGFIGISMCQSDPMVVPFGGAEIYYGTNPLAFAAPGEGDEILTFDMATTVQAWGKVLDARSRNMSIPDTWAVDKNGVPTTDPFAVHALLPAAGPKGYGLMMMIDVLSGVLLGLPFGRQVSSAYDDLHAGRNLGQLHIVINPNFFSSSELFRQHLSQTMRELNAITPAPGFNQVYYPGQDQDIKQRKAAVEGIEIVDDIYQYLISDALYNTSYETKNPFAQ
Result: 46 s⁻¹
